Data origin: the supplement of paper PMC6897291

Reported values of growth inhibition by drug plus 177Lu-lilotomab satetraxetan for individual entries
test system: RIVA; experiment: growth inhibition by drug plus 177Lu-lilotomab satetraxetan (1 - RLU/untreated control) (fraction); higher = stronger inhibition; details: 100 nM; time (day): 5; 177Lu-lilotomab satetraxetan 0.5 ug/ml
Counter-ions that a name gives are not always drawn.
Output spec: single numeric token, no unit.

Here are 6 compounds together with their reported answers.
compound	assayResult
CC(C)C(=O)Nc1ccc([N+](=O)[O-])c(C(F)(F)F)c1 [Flutamide (Eulexin)]	0.599
c1ccc(-c2nn3c(c2-c2ccnc4cc(OCCN5CCOCC5)ccc24)CCC3)nc1	0.439
CN(N=O)C(=O)N[C@@H](C=O)[C@@H](O)[C@H](O)[C@H](O)CO [Streptozotocin (Zanosar)]	0.481
COC(=O)Nc1nc2cc(C(=O)c3cccs3)ccc2[nH]1	0.974
COC1=CC(c2cc3ccccc3[nH]2)=N/C1=C\c1[nH]c(C)cc1C [Obatoclax mesylate (GX15-070)]	0.412
O=C(O)c1ccc2cc(-c3ccc(O)c(C45CC6CC(CC(C6)C4)C5)c3)ccc2c1	0.518

Tested on RIVA, the item COC(=O)C1=C(C)NC(C)=C(C(=O)OCCCN2CCC(c3ccccc3)(c3ccccc3)CC2)[C@H]1c1cccc([N+](=O)[O-])c1 [S-(+)-Niguldipine hydrochloride] showed growth inhibition by drug plus 177Lu-lilotomab satetraxetan equal to 0.566

I looked up C#Cc1cccc(Nc2ncnc3cc(OCCOC)c(OCCOC)cc23)c1 [Erlotinib HCl] and its growth inhibition by drug plus 177Lu-lilotomab satetraxetan for RIVA was 0.788

Item `COc1cc(N2CCC(N3CCN(C)CC3)CC2)ccc1Nc1ncc(Cl)c(Nc2ccccc2S(=O)(=O)C(C)C)n1` was tested on RIVA; the reported growth inhibition by drug plus 177Lu-lilotomab satetraxetan is 0.278

----------
test system: RIVA; assay: growth inhibition by drug alone (1 - RLU/untreated control) (fraction); higher = stronger inhibition; details: 100 nM; time (day): 6; 177Lu-lilotomab satetraxetan 0 ug/ml
parameterMeasured: growth inhibition by drug alone
Give the figure by itself; no unit, no explanation.

Example cases with answers are listed next.
molecule	growth inhibition by drug alone
CN(C)Cc1ccc(-c2nc3cccc4c3n2CCNC4=O)cc1	-0.0877
CCCCc1nc2cc(/C=C/C(=O)NO)ccc2n1CCN(CC)CC [SB939 (Pracinostat)]	0.353
Cc1ccc(C(=O)N(CCCN)[C@@H](c2nc3cc(Cl)ccc3c(=O)n2Cc2ccccc2)C(C)C)cc1	0.943

Query molecule follows.
So for CC1(C)CCC(c2ccc(Cl)cc2)=C(CN2CCN(c3ccc(C(=O)NS(=O)(=O)c4ccc(N[C@H](CCN5CCOCC5)CSc5ccccc5)c(S(=O)(=O)C(F)(F)F)c4)cc3)CC2)C1 [ABT-263 (Navitoclax)] , the logged growth inhibition by drug alone turned out to be 0.974

----------
test system: RIVA; experiment: growth inhibition by drug plus 177Lu-lilotomab satetraxetan (1 - RLU/untreated control) (fraction); higher = stronger inhibition; details: 100 nM; time (day): 5; 177Lu-lilotomab satetraxetan 0.5 ug/ml
parameterMeasured: growth inhibition by drug plus 177Lu-lilotomab satetraxetan
Lab note: jot down the number only; don't add units.

// growth inhibition by drug plus 177Lu-lilotomab satetraxetan value for `Cc1ccc([N+](=O)[O-])cc1S(=O)(=O)N(C)/N=C/c1cnc2ccc(Br)cn12` : 0.868

// growth inhibition by drug plus 177Lu-lilotomab satetraxetan lookup, compound = `COc1cc2nccc(Oc3ccc(NC(=O)NC4CC4)c(Cl)c3)c2cc1C(N)=O` , result: 0.454

Data point: `COc1cc2ncnc(-n3nc(-c4ccccn4)nc3N)c2cc1OC` ; growth inhibition by drug plus 177Lu-lilotomab satetraxetan = 0.579

----------
tested on: U-2932; assay: growth inhibition by drug plus 177Lu-lilotomab satetraxetan (1 - RLU/untreated control) (fraction); higher = stronger inhibition; settings: 10 nM; time (day): 6; 177Lu-lilotomab satetraxetan 1 ug/ml
Note to self: values exactly at 0.07 are satisfied. So growth inhibition by drug plus 177Lu-lilotomab satetraxetan at or above 0.07 is satisfied, below is not satisfied.

Worked examples follow.
>>> df
                                   molecule     labelclass
0  c1ccc2c(CCNc3ccc(Nc4ccncc4)cc3)c[nH]c2c1      satisfied
1  CN1CCC(CNc2ccc3ncc(-c4cccc(OC(F)(F)F)c4)n3n2)CC1 [SGI-1776 free base]  not satisfied
2                          CN(C)CCCCSC(=N)N  not satisfied
3  COc1ccc(C2=N[C@@H](c3ccc(Cl)cc3)[C@@H](c3ccc(Cl)cc3)N2C(=O)N2CCNC(=O)C2)c(OC(C)C)c1 [Nutlin-3]      satisfied
4  O=C(Nc1cccnc1)N1CCC(Cc2cccc(Oc3ccc(C(F)(F)F)cn3)c2)CC1      satisfied

Q: Identify whether the reported growth inhibition by drug plus 177Lu-lilotomab satetraxetan of the following molecule is 0.07 or greater: CC(C)(C)c1[nH]cnc1/C=c1\[nH]c(=O)/c(=C/c2ccccc2)[nH]c1=O [NPI-2358 (Plinabulin)]
A: satisfied

Q: Entry CC(C)(C)c1cc(NC(=O)Nc2ccc(-c3cn4c(n3)sc3cc(OCCN5CCOCC5)ccc34)cc2)no1 [Quizartinib (AC220)] : is its growth inhibition by drug plus 177Lu-lilotomab satetraxetan no less than 0.07?
A: satisfied

----------
system: RIVA; assay: growth inhibition by drug alone (1 - RLU/untreated control) (fraction); higher = stronger inhibition; details: 100 nM; time (day): 5; 177Lu-lilotomab satetraxetan 0 ug/ml
Counter-ions that a name gives are not always drawn.
parameterMeasured: growth inhibition by drug alone
Reply with the value as a number alone.

For reference, reported growth inhibition by drug alone for `O=C(O)c1ccc2cc(-c3ccc(O)c(C45CC6CC(CC(C6)C4)C5)c3)ccc2c1` stands at -0.181

growth inhibition by drug alone reported for this compound `Cc1nc(-c2ccc(OCC(C)C)c(C#N)c2)sc1C(=O)O` : 0.0362

Lab book: growth inhibition by drug alone of `Cc1cnc(NC(=O)Nc2cc(Br)c(C)cc2OC[C@@H]2CNCCO2)cn1` noted as -0.0517

Form field growth inhibition by drug alone, entry `CS(=O)(=O)N1CCc2c(-c3cnc(N)nc3)nc(N3CCOCC3)nc21` : 0.108

Per the record, CCc1c2c(nc3ccc(OC(=O)N4CCC(N5CCCCC5)CC4)cc13)-c1cc3c(c(=O)n1C2)COC(=O)[C@]3(O)CC [Irinotecan HCl Trihydrate (Campto)] has growth inhibition by drug alone of -0.0382

----------
tested on: U-2932; experiment: growth inhibition by drug alone (1 - RLU/untreated control) (fraction); higher = stronger inhibition; details: 1000 nM; time (day): 6; 177Lu-lilotomab satetraxetan 0 ug/ml
# growth inhibition by drug alone annotations
I'd appreciate a reply containing only the number, no unit.

>>> print(df.to_string())
                                   compound                parametermeasured  assayresult
0  Nc1ccc(C(=O)Nc2cccc(-c3nc(N4CCOCC4)c4oc5ncccc5c4n3)c2)cn1  growth inhibition by drug alone        0.206
1  CCc1ccc(CCOc2ccc(CC3SC(=O)NC3=O)cc2)nc1 (configuration not stated)  growth inhibition by drug alone       0.0915
2  O=C(NCCS(=O)(=O)c1ccc(C(F)(F)F)cn1)c1ccc(Cl)cc1  growth inhibition by drug alone      0.00213
3  CN(C)C[C@@H]1CCn2cc(c3ccccc32)C2=C(C(=O)NC2=O)c2cn(c3ccccc23)CCO1  growth inhibition by drug alone        0.249
4  COc1ccc2c(c1)CCC1C2CCC2(C)C(NCCCCCCN3C(=O)C=CC3=O)CCC12 (configuration not stated)  growth inhibition by drug alone       -0.361

Item: `COc1ccc(S(=O)(=O)Nc2cccnc2Nc2ccc(O)cc2)cc1` | growth inhibition by drug alone: 0.948

----------
Each entry below carries its recorded growth inhibition by drug plus 177Lu-lilotomab satetraxetan.
tested on: U-2932; test: growth inhibition by drug plus 177Lu-lilotomab satetraxetan (1 - RLU/untreated control) (fraction); higher = stronger inhibition; details: 10 nM; time (day): 4; 177Lu-lilotomab satetraxetan 1 ug/ml

Below, each entry is followed by its recorded growth inhibition by drug plus 177Lu-lilotomab satetraxetan result.
compound	assayResult
COc1cc2nccc(Oc3ccc(NC(=O)NC4CC4)c(Cl)c3)c2cc1C(N)=O	-0.0346
COC(=O)Nc1ccc(-c2nc(N3CCOCC3)c3cnn(C4CCN(C(=O)OC)CC4)c3n2)cc1	0.147

Entry under test: CO[C@H]1C[C@@H]2CC[C@@H](C)[C@@](O)(O2)C(=O)C(=O)N2CCCC[C@H]2C(=O)O[C@H]([C@H](C)C[C@@H]2CC[C@@H](O)[C@H](OC)C2)CC(=O)[C@H](C)/C=C(\C)[C@@H](O)[C@@H](OC)C(=O)[C@H](C)C[C@H](C)/C=C/C=C/C=C/1C [Rapamycin (Sirolimus)] . Its growth inhibition by drug plus 177Lu-lilotomab satetraxetan was 0.666
